# Tested system: UniProtKB P10145
# Test details: inhibitors of NFkB activation in CF airway cells, SAR follow-up, KKLEB cells, panel, IL8 HTRF, NFkB-GFP (AID 651592);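 further: immortalized cystic fibrosis airway epithelial KKLEB cells with an NF-kB GFP reporter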
# Details: PAF/TNFa-induced NFkB-GFP / IL8 HTRF, IL8, PAF-induced, run 3
# IC50 values compiled below

Use these answered entries as a reference point.
O=C(Nc1ccc(N2CCN(C(=O)c3ccc(F)cc3)CC2)cc1)c1cc(Br)cc(Br)c1 ... > 66 µM
O=C(Nc1ccc(N2CCN(C(=O)c3ccccc3Cl)CC2)cc1)c1cccnc1 ... > 66 µM
O=C(Nc1ccc(N2CCN(C(=O)c3ccccc3F)CC2)cc1)c1cccnc1 ... > 66 µM
O=C(Nc1ccc(N2CCN(C(=O)c3ccccc3Cl)CC2)cc1)c1cc(Br)cc(Br)c1 ... > 66 µM

Next compound, IC50 to be filled in.
Noted for `O=C(Nc1ccc(N2CCN(C(=O)c3ccccc3Cl)CC2)cc1)c1ccccc1` : its IC50 reads 16.7 µM

* * *

# IC50 values compiled below
# Test system: IL8
# Test details: inhibitors of NFkB activation in CF airway cells, SAR follow-up, KKLEB cells, panel, IL8 HTRF, NFkB-GFP (AID 651592)
# Details: PAF/TNFa-induced NFkB-GFP / IL8 HTRF, TNFa-induced, mean of runs, mean IC50 across panel replicates

Use these answered entries as a reference point.
Cc1ccc(NCc2cc3c(C(C)(C)C)nn(-c4ccccc4)c3[nH]c2=O)cc1 ... > 66 µM
O=C(Nc1ccc(N2CCN(C(=O)c3ccccc3)CC2)cc1)c1ccncc1 ... > 66 µM
O=C(Nc1ccc(N2CCN(C(=O)c3ccccc3)CC2)cc1)c1cncc(Br)c1 ... 60.9 µM
O=C(Nc1ccc(N2CCN(C(=O)c3ccccc3F)CC2)cc1)c1cc(Br)cc(Br)c1 ... > 66 µM
O=C(Nc1ccc(N2CCN(C(=O)c3ccccc3F)CC2)cc1)c1ccccn1 ... > 66 µM
O=C(Nc1ccc(N2CCN(C(=O)c3ccccc3F)CC2)cc1)c1cccc(Br)c1 ... 56 µM

IL8 data for `O=C(Nc1ccc(N2CCN(C(=O)c3ccc(F)cc3)CC2)cc1)c1cc(Br)cc(Br)c1` ; its IC50: > 66 µM

IL8 data for `O=C(Nc1ccc(N2CCN(C(=O)c3ccc(F)cc3)CC2)cc1)c1cccc(Br)c1` ; its IC50: > 66 µM

IL8 data for `O=C(Nc1ccc(N2CCN(C(=O)c3ccccc3Cl)CC2)cc1)c1ccccc1` ; its IC50: 45.5 µM

IL8 data for `O=C(Nc1ccc(N2CCN(C(=O)c3ccccc3Cl)CC2)cc1)c1cccc(Br)c1` ; its IC50: > 66 µM

* * *

# Test details: inhibitors of NFkB activation in CF airway cells, SAR follow-up, KKLEB cells, panel, IL8 HTRF, NFkB-GFP (AID 651592)
# Details: PAF/TNFa-induced NFkB-GFP / IL8 HTRF, CF-PAF assay, run 4
Quantity measured: IC50 (µM)
Use µM as the unit, but write only the number.

Use these answered entries as a reference point.
O=C(Nc1ccc(N2CCN(C(=O)c3ccccc3)CC2)cc1)c1cncc(Br)c1 ... 2.93
CCOc1ccc(NCc2cc3c(-c4ccc(OC)c(OC)c4)nn(-c4ccccc4)c3[nH]c2=O)cc1 ... 10.4
CCOc1ccc(NCc2cc3c(-c4ccc(F)cc4)nn(-c4ccccc4)c3[nH]c2=O)cc1 ... 1.81

Noted for `O=C(Nc1ccc(N2CCN(C(=O)c3ccccc3Cl)CC2)cc1)c1cncc(Br)c1` : its IC50 reads 2.72

Noted for `CCOc1ccc(NCc2cc3c(C)nn(-c4ccccc4)c3[nH]c2=O)cc1` : its IC50 reads 9.13

* * *

# Tested system: Interleukin-8 (Homo sapiens) (UniProt P10145)
# Sequence (P10145 whole entry, looked up): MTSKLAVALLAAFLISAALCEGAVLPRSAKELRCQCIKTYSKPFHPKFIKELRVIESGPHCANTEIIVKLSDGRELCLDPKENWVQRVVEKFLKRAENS
# Test details: inhibitors of NFkB activation in CF airway cells, SAR follow-up, KKLEB cells, panel, IL8 HTRF, NFkB-GFP (AID 651592)
# Details: PAF/TNFa-induced NFkB-GFP / IL8 HTRF, IL8, PAF-induced, run 5
Quantity measured: IC50

Noted for `O=C(Nc1ccc(N2CCN(C(=O)c3ccc(F)cc3)CC2)cc1)c1cc(Br)cc(Br)c1` : its IC50 reads > 66 µM

Noted for `O=C(Nc1ccc(N2CCN(C(=O)c3ccccc3Cl)CC2)cc1)c1ccncc1` : its IC50 reads 3.67 µM

Noted for `O=C(Nc1ccc(N2CCN(C(=O)c3ccccc3)CC2)cc1)c1cccc(Br)c1` : its IC50 reads > 66 µM

Noted for `O=C(Nc1ccc(N2CCN(C(=O)c3ccccc3Cl)CC2)cc1)c1cccnc1` : its IC50 reads > 66 µM

Noted for `O=C(Nc1ccc(N2CCN(C(=O)c3ccccc3)CC2)cc1)c1ccncc1` : its IC50 reads > 66 µM

* * *

# Test details: inhibitors of NFkB activation in CF airway cells, SAR follow-up, KKLEB cells, panel, IL8 HTRF, NFkB-GFP (AID 651592);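 further: immortalized cystic fibrosis airway epithelial KKLEB cells with an NF-kB GFP reporter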
# Details: PAF/TNFa-induced NFkB-GFP / IL8 HTRF, CF-PAF assay, run 6
# label = condition met if IC50 < 20 µM else condition not met

The following molecules have reported results that may help.
O=C(Nc1ccc(N2CCN(C(=O)c3ccccc3F)CC2)cc1)c1cccnc1 ... condition met
O=C(Nc1ccc(N2CCN(C(=O)c3ccccc3F)CC2)cc1)c1ccncc1 ... condition met
O=C(Nc1ccc(N2CCN(C(=O)c3ccc(F)cc3)CC2)cc1)c1ccccc1 ... condition not met
O=C(Nc1ccc(N2CCN(C(=O)c3ccccc3)CC2)cc1)c1cccnc1 ... condition not met

Would you kindly look at the next entry?
-- ask Lab note: IC50 threshold 20 µM. Does this molecule come in strictly under it? `O=C(Nc1ccc(N2CCN(C(=O)c3ccccc3)CC2)cc1)c1ccccn1`
-- reply condition not met

* * *

# Tested system: Interleukin-8 (Homo sapiens) (UniProt P10145)
# Test details: inhibitors of NFkB activation in CF airway cells, SAR follow-up, KKLEB cells, panel, IL8 HTRF, NFkB-GFP (AID 651592);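 further: immortalized cystic fibrosis airway epithelial KKLEB cells with an NF-kB GFP reporter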
# Details: PAF/TNFa-induced NFkB-GFP / IL8 HTRF, IL8, PAF-induced, run 1
pIC50: −log10 of the molar value.
# pIC50 values compiled below

O=C(Nc1ccc(N2CCN(C(=O)c3ccccc3)CC2)cc1)c1cncc(Br)c1 ... 5.36
O=C(Nc1ccc(N2CCN(C(=O)c3ccccc3Cl)CC2)cc1)c1ccncc1 ... < 4.18
O=C(Nc1ccc(N2CCN(C(=O)c3ccc(F)cc3)CC2)cc1)c1cccnc1 ... < 4.18
O=C(Nc1ccc(N2CCN(C(=O)c3ccc(F)cc3)CC2)cc1)c1ccncc1 ... < 4.18

Noted for `O=C(Nc1ccc(N2CCN(C(=O)c3ccccc3)CC2)cc1)c1cccc(Br)c1` : its pIC50 reads < 4.18

* * *

# Tested system: Interleukin-8 (Homo sapiens)
# Test details: inhibitors of NFkB activation in CF airway cells, SAR follow-up, KKLEB cells, panel, IL8 HTRF, NFkB-GFP (AID 651592);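 further: immortalized cystic fibrosis airway epithelial KKLEB cells with an NF-kB GFP reporter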
# Details: PAF/TNFa-induced NFkB-GFP / IL8 HTRF, IL8, PAF-induced, run 3
pIC50: −log10 of the molar value.
Record True whenever pIC50 is at 5 or higher; record False when lower.

The following molecules have reported results that may help.
O=C(Nc1ccc(N2CCN(C(=O)c3ccccc3Cl)CC2)cc1)c1ccncc1 ... False
O=C(Nc1ccc(N2CCN(C(=O)c3ccccc3F)CC2)cc1)c1cc(Br)cc(Br)c1 ... False
O=C(Nc1ccc(N2CCN(C(=O)c3ccc(F)cc3)CC2)cc1)c1cccc(Br)c1 ... False
CCOc1ccc(NCc2cc3c(-c4ccc(F)cc4)nn(-c4ccccc4)c3[nH]c2=O)cc1 ... True

-- ask I'd appreciate it if you could say whether `O=C(Nc1ccc(N2CCN(C(=O)c3ccccc3)CC2)cc1)c1ccccn1` has pIC50 at least equal to 5.
-- reply False

-- ask I'd appreciate it if you could say whether `O=C(Nc1ccc(N2CCN(C(=O)c3ccccc3F)CC2)cc1)c1ccccn1` has pIC50 at least equal to 5.
-- reply False

-- ask I'd appreciate it if you could say whether `O=C(Nc1ccc(N2CCN(C(=O)c3ccccc3F)CC2)cc1)c1cccc(Br)c1` has pIC50 at least equal to 5.
-- reply False

-- ask I'd appreciate it if you could say whether `O=C(Nc1ccc(N2CCN(C(=O)c3ccc(F)cc3)CC2)cc1)c1cncc(Br)c1` has pIC50 at least equal to 5.
-- reply False

-- ask I'd appreciate it if you could say whether `O=C(Nc1ccc(N2CCN(C(=O)c3ccccc3)CC2)cc1)c1ccncc1` has pIC50 at least equal to 5.
-- reply True

-- ask I'd appreciate it if you could say whether `CCOc1ccc(NCc2cc3c(C(C)(C)C)nn(-c4ccc(Cl)cc4)c3[nH]c2=O)cc1` has pIC50 at least equal to 5.
-- reply True

-- ask I'd appreciate it if you could say whether `O=C(Nc1ccc(N2CCN(C(=O)c3ccccc3F)CC2)cc1)c1ccncc1` has pIC50 at least equal to 5.
-- reply False

-- ask I'd appreciate it if you could say whether `O=C(Nc1ccc(N2CCN(C(=O)c3ccc(F)cc3)CC2)cc1)c1ccccc1` has pIC50 at least equal to 5.
-- reply False

-- ask I'd appreciate it if you could say whether `O=C(Nc1ccc(N2CCN(C(=O)c3ccccc3)CC2)cc1)c1cc(Br)cc(Br)c1` has pIC50 at least equal to 5.
-- reply False

-- ask I'd appreciate it if you could say whether `O=C(Nc1ccc(N2CCN(C(=O)c3ccccc3Cl)CC2)cc1)c1ccccn1` has pIC50 at least equal to 5.
-- reply False

-- ask I'd appreciate it if you could say whether `O=C(Nc1ccc(N2CCN(C(=O)c3ccccc3)CC2)cc1)c1ccccc1` has pIC50 at least equal to 5.
-- reply False

-- ask I'd appreciate it if you could say whether `Cc1ccc(NCc2cc3c(C(C)(C)C)nn(-c4ccccc4)c3[nH]c2=O)cc1` has pIC50 at least equal to 5.
-- reply True

-- ask I'd appreciate it if you could say whether `O=C(Nc1ccc(N2CCN(C(=O)c3ccc(F)cc3)CC2)cc1)c1cccnc1` has pIC50 at least equal to 5.
-- reply False

-- ask I'd appreciate it if you could say whether `CCOc1ccc(NCc2cc3c(-c4ccc(OC)c(OC)c4)nn(-c4ccccc4)c3[nH]c2=O)cc1` has pIC50 at least equal to 5.
-- reply True
